Overview of recorded response for various variants
B1: N-terminal 3×-FLAG-tagged p52 (WT) [human] / p8 [human (endogenous in HEK293T)] (parent complex)
chain 1: MESTPSRGLNRVHLQCRNLQEFLGGLSPGVLDRLYGHPATCLAVFRELPSLAKNWVMRMLFLEQPLPQAAVALWVKKEFSKAQEESTGLLSGLRIWHTQLLPGGLQGLILNPIFRQNLRIALLGGGKAWSDDTSQLGPDKHARDVPSLDKYAEERWEVVLHFMVGSPSAAVSQDLAQLLSQAGLMKSTEPGEPPCITSAGFQFLLLDTPAQLWYFMLQYLQTAQSRGMDLVEILSFLFQLSFSTLGKDYSVEGMSDSLLNFLQHLREFGLVFQRKRKSRRYYPTRLAINLSSGVSGAGGTVHQPGFIVVETNYRLYAYTESELQIALIALFSEMLYRFPNMVVAQVTRESVQQAIASGITAQQIIHFLRTRAHPVMLKQTPVLPPTITDQIRLWELERDRLRFTEGVLYNQFLSQVDFELLLAHARELGVLVFENSAKRLMVVTPAGHSDVKRFWKRQKHSS
chain 2: MVNVLKGVLIECDPAMKQFLLYLDESNALGKKFIIQDIDDTHVFVIAELVNVLQERVGELMDQNAFSLTQK

Variants of: B1
Test: FLAG-IP LC–MS (iBAQ); HEK293T nuclear extracts; n = 3, biological replicates; read off a plot

[[record]]
variant_annotation = "chain 1 R337A, chain 1 F338A"
result_type = "response"
assay_result = "~0.84 Normalized Log2 iBAQ"

[[record]]
variant_annotation = "chain 1 E310F"
result_type = "response"
assay_result = "~0.86 Normalized Log2 iBAQ"

[[record]]
variant_annotation = "chain 1 E310A, chain 1 R314A"
result_type = "response"
assay_result = "~0.83 Normalized Log2 iBAQ"


Attention now turns to another entry.
query: I have this variant here, chain 1 Y316A, chain 1 Y318A , and I need its recorded response.
result: ~0.83 Normalized Log2 iBAQ

The measured values listed here are drawn from paper PMC9557730.
